assay: Selectivity ratio of Ki for Electrophorus electricus AChE to Ki for equine serum BChE
# Ratio Ki per record follows

Before answering, review these 6 worked examples.
SMILES_STR	Ratio Ki
COC(=O)[C@@]1(C)CC[C@]2(C)CC[C@]3(C)C(=CC(=O)[C@@H]4[C@@]5(C)CC[C@H](OC(=O)[C@@H]6CCCN6)C(C)(C)[C@@H]5CC[C@]43C)[C@@H]2C1	< 0.24
CC1(C)[C@@H](O)CC[C@]2(C)[C@H]3C(=O)C=C4[C@@H]5C[C@@](C)(C(=O)OCCBr)CC[C@]5(C)CC[C@@]4(C)[C@]3(C)CC[C@@H]12	< 0.24
CCOC(=O)[C@@]1(C)CC[C@]2(C)CC[C@]3(C)C(=CC(=O)[C@@H]4[C@@]5(C)CC[C@H](OC(=O)[C@@H](N)Cc6ccccc6)C(C)(C)[C@@H]5CC[C@]43C)[C@@H]2C1	< 0.14
COC(=O)[C@@]1(C)CC[C@]2(C)CC[C@]3(C)C(=CC(=O)[C@@H]4[C@@]5(C)CC[C@H](OC(=O)CN)C(C)(C)[C@@H]5CC[C@]43C)[C@@H]2C1	< 0.2
COC(=O)[C@@]1(C)CC[C@]2(C)CC[C@]3(C)C(=CC(=O)[C@@H]4[C@@]5(C)CC[C@H](OC(=O)[C@@H](N)CSCc6ccccc6)C(C)(C)[C@@H]5CC[C@]43C)[C@@H]2C1	< 0.41
CC1(C)[C@@H](O)CC[C@]2(C)[C@H]3C(=O)C=C4[C@@H]5C[C@@](C)(C(=O)OC/C=C/CBr)CC[C@]5(C)CC[C@@]4(C)[C@]3(C)CC[C@@H]12	< 0.74

# get_value(readout='Ratio Ki', item= C=CCCOC(=O)[C@@]1(C)CC[C@]2(C)CC[C@]3(C)C(=CC(=O)[C@@H]4[C@@]5(C)CC[C@H](O)C(C)(C)[C@@H]5CC[C@]43C)[C@@H]2C1 )
< 0.15

Likewise for COC(=O)[C@@]1(C)CC[C@]2(C)CC[C@]3(C)C(=CC(=O)[C@@H]4[C@@]5(C)CC[C@H](OC(=O)[C@@H](N)Cc6ccccc6)C(C)(C)[C@@H]5CC[C@]43C)[C@@H]2C1 ?
< 0.21
